Measured GI50 values are reported for all entries that follow.
Test system: 786-0 renal
Assay: NCI tumour cell line growth inhibition, 48 h
measured_attribute: GI50

>>> value("CC1Cc2c(N(C)C)ncnc2N(C)c2ccc(Cl)cc21 (stereo unspecified)")
"8.26 µM"
>>> value("CN1CCCC1c1cccnc1.O=C(O)c1ccccc1O.O=C([O-])c1ccccc1[OH2+].O=C([O-])c1ccccc1[OH2+].O=C([O-])c1ccccc1[OH2+].[Mn+2] (stereo unspecified)")
"> 100 µM"
>>> value("COc1ccccc1Cn1cc2c(c1)-c1oncc1CC2")
"2.44 µM"
>>> value("Nc1ncnc2occ(-c3ccc(NC(=O)Nc4cc(C(F)(F)F)cc(C(F)(F)F)c4)cc3)c12")
"3.54 µM"
>>> value("O=C(N[C@@H]1CCCc2ccccc21)[C@H](CCC(=O)N1CCN(C2CCCCC2)CC1)N1C(=O)[C@@H](N2C(=O)OC[C@@H]2c2ccccc2)[C@H]1/C=C/c1ccccc1")
"1.86 µM"
>>> value("COc1cc(C2C3=C(COC3=O)N(CCO)c3cc4c(cc32)CCC4)cc(OC)c1O (stereo unspecified)")
"0.77 µM"
>>> value("C[C@@H](NC(=O)Cc1cc(F)cc(F)c1)C(=O)N[C@@]1(C)N=C(c2ccccc2)c2ccccc2N(C)C1=O")
"> 100 µM"
>>> value("N#CC1c2ccccc2-c2ccccc2N1C(=O)c1ccccc1 (stereo unspecified)")
"3.53 µM"
>>> value("O=C(/C=C/N1CCN(c2cccc(C(F)(F)F)c2)CC1)c1ccc(Cl)cc1Cl")
"20.8 µM"
>>> value("COC(=O)c1cc(Nc2ccc(O)c3c2C(=O)c2c([N+](=O)[O-])ccc(O)c2C3=O)cc(C(=O)OC)c1")
"30.6 µM"
>>> value("CCOC(=O)c1[nH]c2c(c1C)-c1[nH]c(=O)c(S(=O)(=O)c3ccccc3)cc1SC2")
"46.3 µM"
